Sourced from PubChem BioAssay (NCI)

- ASSAY OVERVIEW: NCI Yeast Anticancer Drug Screen. Data for the rad14 strain (AID 159);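 note: 0% = growth of vehicle-treated control cultures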
- EXPERIMENTAL PARAMETERS: S. cerevisiae rad14 strain growth inhibition; at 3.7 µM; active compounds read high
About 79,000 compounds went through this panel and 15% of them were active in at least one assay; those are over-represented in the sample as a whole. The source made the active and inactive calls. Cut-off read from the data, not from the text of the source: active = growth inhibition above about 70%; inactive = the rest.
MEASURED PARAMETER: growth inhibition

Field: example entries. Status: answers known.
MOLECULE: C[CH2][Sn]([CH2]C)([O]C(=O)C(OC(C)=O)c1ccccc1)[O]C(=O)C(OC(C)=O)c1ccccc1 (stereo not drawn)
growth inhibition: -3% (inactive)

MOLECULE: Fc1ccc(NC(=S)SCc2ccc3c(c2)OCO3)cc1F
growth inhibition: 20% (inactive)

MOLECULE: Cc1ccc2ccc(O)cc2c1
growth inhibition: -20% (inactive)

MOLECULE: CC(C)c1cc(C(C)C)c(O)c(C([O-])[O-])c1.CC(C)c1cc(C(C)C)c(O)c(C([O-])[O-])c1.CC(C)c1cc(C(C)C)c(O)c(C([OH2+])[OH2+])c1.CC(C)c1cc(C(C)C)c(O)c(C([OH2+])[OH2+])c1.[Cu+2].[Cu+2].[OH3+].[OH3+]
growth inhibition: 14% (inactive)

MOLECULE: O=C(O)C1CCCCC1c1c2ccc(=O)c(O)c-2oc2c(O)c(O)ccc12 (stereo not drawn)
growth inhibition: -7% (inactive)

MOLECULE: COc1cc(C2SCC(=O)N2c2ccc(-c3ccc(-n4c(-c5ccccc5)nc5ccccc5c4=O)cc3)cc2)cc(OC)c1OC (stereo not drawn)
growth inhibition: 0% (inactive)

MOLECULE: C/C(=N\O)C1CC2C=C(C#N)C1N(Cc1ccccc1)C2 (stereo not drawn)
growth inhibition: -1% (inactive)

Ask: Could you share which growth inhibition value was measured for `O=C(O)c1cccc(-c2c3ccc(=O)cc-3oc3cc(O)ccc23)c1` ?
Result: -20% (inactive)

====

- ASSAY OVERVIEW: NCI Yeast Anticancer Drug Screen. Data for the mlh1 rad18 strain (AID 175)
- EXPERIMENTAL PARAMETERS: S. cerevisiae mlh1 rad18 strain growth inhibition; at 50.0 µM
This is part of a sample that, as a whole, favours compounds with a hit. Of some 79,000 tested, about 15% had one in any assay. Active and inactive are the calls of the source. Rule as the data show it: active = growth inhibition above about 70%; inactive = the rest.
Select the matching outcome among True = active, False = inactive

Worked examples, 6 compounds total:
COMPOUND: C#CCCCc1ccccc1
GROUP: False

COMPOUND: CC(C)c1ccccc1NC(=O)/C(Cl)=C(\Cl)C(=O)O
GROUP: False

COMPOUND: C[Si](C)(C)CNC(=O)OCc1ccccc1
GROUP: False

COMPOUND: COc1ccc(OC)c2cc3ccccc3cc12
GROUP: True

COMPOUND: CCCCCCCCCCCCCCCCCCOCC(O)COP(=O)(O)OCC1OC(n2cc(F)c(=O)[nH]c2=O)CC1O (stereo not drawn)
GROUP: True

COMPOUND: Cc1[nH]c2ccccc2c1C(c1ccc(N)cc1)c1c(C)[nH]c2ccccc12
GROUP: True

Ask: Fill in: this test's call for `NNC(=O)CCc1ccc2ccc3ccccc3c2c1` is ___
Result: True

Ask: Repeat with `COC(=O)c1ccc(CCC2=CC(=O)C(Br)=CC2=O)cc1`
Result: True
